- System: genotype 1a (H77) stable HCV replicon in Huh-7-derived cells
- assayNotes: Stable subgenomic HCV replicon EC50, genotype 1a (Renilla luciferase)
- Assay type: cell-based, hepatitis C virus
- conditionsUsed: Hepatitis C virus, stable replicon genotype 1a, 72 h, read-out: EC50 1A RLUC
pEC50: −log10 of the molar value.
experimentalReadout: pEC50

* CC[C@@H]1[C@@H]2CN(C(=O)[C@H](C(C)(C)C)NC(=O)O[C@@H]3CCCC[C@H]3CCCCCc3nc4ccc(OC)cc4nc3O2)[C@@H]1C(=O)N[C@]1(C(=O)NS(=O)(=O)C2CC2)C[C@H]1C(F)F | 7.43
* CC[C@@H]1[C@@H]2CN(C(=O)[C@H](C(C)(C)C)NC(=O)O[C@@H]3C[C@H]3CCCCC(F)(F)c3nc4ccc(OC)cc4nc3O2)[C@@H]1C(=O)NC1(C(=O)NS(=O)(=O)C2CC2)C[C@H]1C(F)F (stereo partly drawn) | 8.42
* CC[C@@H]1[C@@H]2CN(C(=O)[C@H](C(C)(C)C)NC(=O)O[C@@H]3C[C@H]3CCCCCc3nc4ccc(OC)cc4nc3O2)[C@@H]1C(=O)N[C@]1(C(=O)NS(=O)(=O)C2CC2)C[C@H]1CC | 7.93
* CC[C@@H]1[C@@H]2CN(C(=O)[C@H](C(C)(C)C)NC(=O)O[C@@H]3C[C@@H]4C[C@@H]4[C@H]3CCCCC(F)(F)c3nc4ccc(OC)cc4nc3O2)[C@@H]1C(=O)N[C@]1(C(=O)NS(=O)(=O)C2CC2)C[C@H]1C(F)F | 8.27
* C[C@@H]1[C@@H]2CN(C(=O)[C@H](C(C)(C)C)NC(=O)O[C@@H]3C[C@@H]4C[C@@H]4[C@H]3CC/C=C/Cn3c(nc4cc(Cl)ccc4c3=O)O2)[C@@H]1C(=O)N[C@]1(C(=O)NS(=O)(=O)C2(C)CC2)C[C@H]1C(F)F | 7.92
* CC[C@@H]1[C@@H]2CN(C(=O)[C@H](C(C)(C)C)NC(=O)O[C@]3(C)CCC[C@H]3CCCCCc3nc4ccc(OC)cc4nc3O2)[C@@H]1C(=O)N[C@]1(C(=O)NS(=O)(=O)C2(C)CC2)C[C@H]1C(F)F | 7.47
* C=C[C@@H]1C[C@]1(NC(=O)[C@@H]1[C@H](CC)[C@@H]2CN1C(=O)[C@H](C(C)(C)C)NC(=O)O[C@@H]1C[C@H]1CCCCCc1nc3ccc(OC)cc3nc1O2)C(=O)NS(=O)(=O)C1CC1 | 8.62
* COc1ccc2nc3c(nc2c1)O[C@H]1CN(C(=O)[C@H](C(C)(C)C)NC(=O)O[C@@H]2C[C@@H]4C[C@@H]4[C@H]2CCCCC3(F)F)[C@H](C(=O)N[C@]2(C(=O)NS(=O)(=O)C3(C)CC3)C[C@H]2C(F)F)[C@@H]1C | 8.40
* CC[C@@H]1C[C@]1(NC(=O)[C@@H]1[C@H](C)[C@@H]2CN1C(=O)[C@H](C(C)(C)C)NC(=O)O[C@@H]1C[C@H]1CCCCCc1nc3ccc(OC)cc3nc1O2)C(=O)NS(=O)(=O)C1(C)CC1 | 8.17

* * *

- System: genotype 1b NS3/4a protease inhibitor resistant variant D168A transient HCV replicon in Huh-7-derived cells
- assayNotes: Transient-transfected HCV replicon EC50, genotype 1b D168A
- Type: cell-based, hepatitis C virus
- conditionsUsed: Hepatitis C virus, 72 h, read-out: EC50 1B D168A, transient-transfected replicon genotype 1b D168A resistant variant, 72 h
pEC50: −log10 of the molar value.
experimentalReadout: pEC50

* CC[C@@H]1[C@@H]2CN(C(=O)[C@H](C(C)(C)C)NC(=O)O[C@]3(C)C[C@H]3CCCCCc3nc4ccc(OC)cc4nc3O2)[C@@H]1C(=O)N[C@]1(C(=O)NS(=O)(=O)C2(C)CC2)C[C@H]1C(F)F [Example 7] | 7.70
* COc1ccc2nc3c(nc2c1)O[C@H]1CN(C(=O)[C@H](C(C)(C)C)NC(=O)O[C@]2(C)C[C@H]2CCCCC3(F)F)[C@H](C(=O)N[C@]2(C(=O)NS(=O)(=O)C3(C)CC3)C[C@H]2C(F)F)[C@@H]1C [Example 76] | 8.55

* * *

- Tested on: genotype 4a (ED43) stable HCV replicon in Huh-7-derived cells
- assayNotes: Stable subgenomic HCV replicon EC50, genotype 4a (Renilla luciferase)
- Type: cell-based, hepatitis C virus
- conditionsUsed: Hepatitis C virus, 72 h, read-out: EC50 4A RLUC
Below, each of the molecules is paired with its reported EC50 value.
experimentalReadout: EC50 (nM)

* C[C@@H]1[C@@H]2CN(C(=O)[C@H](C(C)(C)C)NC(=O)O[C@@H]3C[C@@H]4C[C@@H]4[C@H]3CCCCCc3nc4ccc(C#N)cc4nc3O2)[C@@H]1C(=O)NC1(C(=O)NS(=O)(=O)C2(C)CC2)C[C@H]1C(F)F (stereo partly drawn) [Example 97] | 5.3
* CCC[C@@H]1[C@@H]2CN(C(=O)[C@H](C(C)(C)C)NC(=O)O[C@@H]3C[C@H]3CCCCCc3nc4ccc(OC)cc4nc3O2)[C@@H]1C(=O)N[C@]1(C(=O)NS(=O)(=O)C2(C)CC2)C[C@H]1C(F)F [Example 29] | 7.2
* CC[C@@H]1[C@@H]2CN(C(=O)[C@H](C(C)(C)C)NC(=O)O[C@@H]3C[C@H]3CCCCC(F)(F)c3nc4ccc(OC(F)(F)F)cc4nc3O2)[C@@H]1C(=O)N[C@]1(C(=O)NS(=O)(=O)C2(C)CC2)C[C@H]1C(F)F [Example 83] | 42
* CC[C@@H]1[C@@H]2CN(C(=O)[C@H](C(C)(C)C)NC(=O)O[C@@H]3C[C@@H]4C[C@@H]4[C@H]3CCCCCc3nc4ccc(OC)cc4nc3O2)[C@@H]1C(=O)N[C@]1(C(=O)NS(=O)(=O)C2CC2)C[C@H]1C(F)F [Example 70] | 6.4
* CC[C@@H]1[C@@H]2CN(C(=O)[C@H](C(C)(C)C)NC(=O)O[C@@H]3CCCC[C@H]3CCCCCc3nc4ccc(OC)cc4nc3O2)[C@@H]1C(=O)N[C@]1(C(=O)NS(=O)(=O)C2CC2)C[C@H]1C(F)F [Example 66] | 25
* CC[C@@H]1[C@@H]2CN(C(=O)[C@H](C(C)(C)C)NC(=O)O[C@@]3(C)C[C@@H]3CCCCCc3nc4ccc(OC)cc4nc3O2)[C@@H]1C(=O)N[C@]1(C(=O)NS(=O)(=O)C2(C)CC2)C[C@H]1C(F)F [Example 8] | 13
* COc1ccc2nc3c(nc2c1)O[C@H]1CN(C(=O)[C@H](C(C)(C)C)NC(=O)O[C@@H]2C[C@H]2CCCCC3)[C@H](C(=O)N[C@]2(C(=O)NS(=O)(=O)C3CC3)C[C@H]2CCF)[C@@H]1C [Example 22] | 11
* CC[C@@H]1[C@@H]2CN(C(=O)[C@H](C(C)(C)C)NC(=O)O[C@@H]3C[C@H]3CCCCC(F)(F)c3nc4ccc(C#N)cc4nc3O2)[C@@H]1C(=O)N[C@]1(C(=O)NS(=O)(=O)C2(C)CC2)C[C@H]1C(F)F [Example 87] | 3.8
* COc1ccc2nc3c(nc2c1)O[C@H]1CN(C(=O)[C@H](C(C)(C)C)NC(=O)O[C@@H]2CCC[C@H]2CCCCC3)[C@H](C(=O)N[C@]2(C(=O)NS(=O)(=O)C3CC3)C[C@H]2C(F)F)[C@@H]1C [Example 28] | 4.1

* * *

- Test system: genotype 1a (H77) stable HCV replicon in Huh-7-derived cells
- assayNotes: Stable subgenomic HCV replicon EC50, genotype 1a (Renilla luciferase)
- Assay type: cell-based, hepatitis C virus
- conditionsUsed: Hepatitis C virus, stable replicon genotype 1a, 72 h, read-out: EC50 1A RLUC
pEC50: −log10 of the molar value.
experimentalReadout: pEC50

* CC[C@@H]1[C@@H]2CN(C(=O)[C@H](C(C)(C)C)NC(=O)O[C@@H]3C[C@H]3CCCCCc3nc4ccc(OC)cc4nc3O2)[C@@H]1C(=O)N[C@]1(C(=O)NS(=O)(=O)C2(C)CC2)C[C@H]1CC | 7.97
* COc1ccc2nc3c(nc2c1)O[C@H]1CN(C(=O)[C@H](C(C)(C)C)NC(=O)O[C@@H]2C[C@H]2CCCCC3)[C@H](C(=O)N[C@]2(C(=O)NS(=O)(=O)C3(C)CC3)C[C@H]2C(F)F)[C@@H]1CC#N | 5.35
* COc1ccc2nc3c(nc2c1)O[C@H]1CN(C(=O)[C@H](C(C)(C)C)NC(=O)O[C@@H]2C[C@H]2CCCCC3)[C@H](C(=O)N[C@]2(C(=O)NS(=O)(=O)C3(C)CC3)C[C@H]2CCF)[C@@H]1C | 7.89
* COc1ccc2nc3c(nc2c1)O[C@H]1CN(C(=O)[C@H](C(C)(C)C)NC(=O)O[C@@H]2C[C@H]2CCCCC3(F)F)[C@H](C(=O)N[C@]2(C(=O)NS(=O)(=O)C3(C)CC3)C[C@H]2C(F)F)[C@@H]1C | 8.51
* CC[C@@H]1[C@@H]2CN(C(=O)[C@H](C(C)(C)C)NC(=O)O[C@@]3(C)C[C@@H]3CCCCCc3nc4ccc(OC)cc4nc3O2)[C@@H]1C(=O)N[C@]1(C(=O)NS(=O)(=O)C2(C)CC2)C[C@H]1C(F)F | 7.80
* CC[C@@H]1[C@@H]2CN(C(=O)[C@H](C(C)(C)C)NC(=O)O[C@@H]3C[C@H]3CCCCCc3nc4ccc(OC)cc4nc3O2)[C@@H]1C(=O)N[C@]1(C(=O)NS(=O)(=O)C2(Cl)CC2)C[C@H]1C(F)F | 8.00
* CC[C@]12C[C@@H]1CCCCCc1nc3ccc(OC)cc3nc1O[C@H]1CN(C(=O)[C@H](C(C)(C)C)NC(=O)O2)[C@H](C(=O)N[C@]2(C(=O)NS(=O)(=O)C3(C)CC3)C[C@H]2C(F)F)[C@@H]1C | 7.70
* CC[C@@H]1[C@@H]2CN(C(=O)[C@H](C(C)(C)C)NC(=O)O[C@@H]3C[C@H]3CCCCC(F)(F)c3nc4ccc(OC(F)F)cc4nc3O2)[C@@H]1C(=O)N[C@]1(C(=O)NS(=O)(=O)C2(C)CC2)C[C@H]1C(F)F | 7.80
* COc1ccc2nc3c(nc2c1)O[C@H]1CN(C(=O)[C@H](C(C)(C)C)NC(=O)O[C@@H]2C[C@H]2CCCCC3)[C@H](C(=O)N[C@]2(C(=O)NS(=O)(=O)C3(C)CC3)C[C@H]2CC(F)F)[C@@H]1C | 8.06
* C[C@@H]1[C@@H]2CN(C(=O)[C@H](C(C)(C)C)NC(=O)O[C@@H]3C[C@@H]4C[C@@H]4[C@H]3CCCCC(F)(F)c3nc4ccccc4nc3O2)[C@@H]1C(=O)N[C@]1(C(=O)NS(=O)(=O)C2(C)CC2)C[C@H]1C(F)F | 8.07
* CC[C@@H]1[C@@H]2CN(C(=O)[C@H](C3CCCCC3)NC(=O)O[C@@H]3C[C@H]3CCCCCc3nc4ccc(OC)cc4nc3O2)[C@@H]1C(=O)N[C@]1(C(=O)NS(=O)(=O)C2(C)CC2)C[C@H]1C(F)F | 7.92
* CC[C@@H]1[C@@H]2CN(C(=O)[C@H](C(C)(C)C)NC(=O)O[C@@H]3C[C@H]3CCCCC(F)(F)c3nc4ccccc4nc3O2)[C@@H]1C(=O)N[C@]1(C(=O)NS(=O)(=O)C2CC2)C[C@H]1C(F)F | 7.29
* CC[C@@H]1[C@@H]2CN(C(=O)[C@H](C(C)(C)C)NC(=O)O[C@]3(C)CCC[C@H]3CCCCCc3nc4ccc(OC)cc4nc3O2)[C@@H]1C(=O)N[C@]1(C(=O)NS(=O)(=O)C2CC2)C[C@H]1C(F)F | 7.60
* COc1ccc2nc3c(nc2c1)O[C@H]1CN(C(=O)[C@H](C(C)(C)C)NC(=O)O[C@@H]2CCCC[C@H]2CCCCC3(F)F)[C@H](C(=O)N[C@]2(C(=O)NS(=O)(=O)C3CC3)C[C@H]2C(F)F)[C@@H]1C | 7.89
* CC[C@@H]1[C@@H]2CN(C(=O)[C@H](C(C)(C)C)NC(=O)O[C@@H]3C[C@H]3CCCCC(F)(F)c3nc4ccc(OC)cc4nc3O2)[C@@H]1C(=O)N[C@]1(C(=O)NS(=O)(=O)C2CC2)C[C@H]1CC | 7.92
* COc1ccc2nc3c(nc2c1)O[C@H]1CN(C(=O)[C@H](C(C)(C)C)NC(=O)O[C@@H]2C[C@H]2CCCCC3)[C@H](C(=O)N[C@]2(C(=O)NS(=O)(=O)C3(C)CC3)C[C@H]2C(F)F)[C@@H]1C | 8.41
* CC[C@@H]1[C@@H]2CN(C(=O)[C@H](C3CCCC3)NC(=O)O[C@@H]3C[C@H]3CCCCCc3nc4ccc(OC)cc4nc3O2)[C@@H]1C(=O)N[C@]1(C(=O)NS(=O)(=O)C2CC2)C[C@H]1C(F)F | 7.96
